These data points were gathered from patent EP1388586A2.

target: DRB10404 (DR4w14) (Homo sapiens, UniProt P01903+P01911, A100R/A169T/F76Y/I96L/K127E/L162R/M171V/N62H/P40V/Q125Y/R42H/S133A/S149N/S66Y/V209L/W38E); construct: used as sources of human HLA class II molecules; endogenous in cells; host or cells: BIN40 (EBV-transformed homozygous B cell line); experiment: Class II peptide-binding assay, DR4w14; conditions: read-out: In IC50 Format DR4w14; Table VIII;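 also: unlabeled peptides compete with a radiolabeled probe for binding to affinity-purified HLA-DR, neutral pH, class II amount titrated to bind a small fraction of label, IC50 approximates Kd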
pIC50: −log10 of the molar value. Ends that are not written are not given here.
Assign Criterion met to entries whose pIC50 meets or exceeds 6; assign Criterion not met to the rest.

FFKNIVTPRFFKNIVTPR [Peptide 613.03] ... Criterion not met
DVFKELKVHHANENI [Peptide 519.00] ... Criterion met
INSWVESQTNGIIR [Peptide 608.02] ... Criterion not met
VHHANENIFYCPIAIMSALA [Peptide 703.03] ... Criterion met
KYLEFISEAIIHVLHSR [Peptide 508.01] ... Criterion not met
